Test system: IGROV-1
Protocol Notes: The compound was evaluated for cytotoxicity against IGROV1 ovarian cancer cell line
Assay type: functional
Study Conditions: Homo sapiens
Experimental Readout: GI50 (nM)
Reply numerically in nM, unit not repeated.

Example results:
Cc1c2ccncc2c(C)c2c1[nH]c1ccc(CNCCN(C)C)cc12 : 150
CCN(CC)CCNCc1ccc2[nH]c3c(C)c4ccncc4c(C)c3c2c1 : 40
Cc1c2ccncc2c(C)c2c1[nH]c1ccc(CO)cc12 : 180

Let's switch to this molecule now.
Form field: GI50 recorded for `Cc1c2ccncc2c(C)c2c1[nH]c1ccc(CN(CCO)CCO)cc12` with IGROV-1 (enter value)
120

The measured values listed here are drawn from ChEMBL document CHEMBL1129835.
